Molecular target: human CCR1 (Homo sapiens)
Sequence (P32246 whole entry): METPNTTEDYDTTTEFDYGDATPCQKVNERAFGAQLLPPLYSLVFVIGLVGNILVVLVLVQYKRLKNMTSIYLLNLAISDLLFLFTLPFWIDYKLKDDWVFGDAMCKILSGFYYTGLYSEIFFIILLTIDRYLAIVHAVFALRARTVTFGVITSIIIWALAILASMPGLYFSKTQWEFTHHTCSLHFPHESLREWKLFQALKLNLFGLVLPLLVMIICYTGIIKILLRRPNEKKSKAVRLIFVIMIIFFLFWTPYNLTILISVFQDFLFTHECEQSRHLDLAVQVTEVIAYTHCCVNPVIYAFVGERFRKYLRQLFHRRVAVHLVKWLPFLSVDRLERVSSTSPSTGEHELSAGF
Please provide measured pIC50 for the entries that follow.
One number for each entry, as −log10 of the molar value.

Below are worked cases with known answers.
{"columns": ["compound", "pIC50"],
 "data": [
  ["CC(=O)Nc1ccc(O)cc1OC[C@@](C)(O)CNC1CCN(Cc2ccc(Cl)cc2)CC1", 8.41],
  ["CC(=O)Nc1cc(Cl)c(O)cc1OC[C@@H](O)CNC1CCN(Cc2ccc(Cl)cc2)CC1 [Example 8, di-trifluoroacetate]", 8.80],
  ["CCC(=O)Nc1cc(Cl)c(O)cc1OC[C@@H](O)CNC1CCN(Cc2ccc(Cl)cc2)CC1 [Example 9, di-trifluoroacetate]", 8.57]
]}

// next item, pIC50 requested
Looking up CC(=O)Nc1cc(Cl)c(O)cc1OC[C@@](C)(O)CNC1CCN(Cc2ccc(Cl)cc2)CC1 [Example 2, di-trifluoroacetate] , I see its pIC50 listed as 9.15
